# melting point listing for each entry below
measured endpoint: melting point

INSERT INTO measurements (item_smiles, measured_endpoint, observed) VALUES
  ('COc1ccc(-c2nccn2-c2cc(OC)c(OC)c(OC)c2)cc1C', 'melting point', '128 to 130 °C'),
  ('COc1cc(-n2ccnc2-c2ccc(C)cc2)cc(OC)c1OC', 'melting point', '142 to 144 °C'),
  ('CCc1ccc(-c2nccn2-c2cc(OC)c(OC)c(OC)c2)cc1', 'melting point', '130 to 132 °C'),
  ('COc1ccc(-c2nccn2-c2cc(OC)c(OC)c(OC)c2)cc1Cl', 'melting point', '176 to 178 °C'),
  ('COc1cc(-n2ccnc2-c2ccc(SC)cc2)cc(OC)c1OC', 'melting point', '158 to 160 °C'),
  ('COc1cc(-n2ccnc2-c2ccc(OC(F)(F)F)cc2)cc(OC)c1OC', 'melting point', '125 to 127 °C'),
  ('CCOc1ccc(-c2nccn2-c2cc(OC)c(OC)c(OC)c2)cc1F', 'melting point', '127 to 129 °C'),
  ('CCOc1ccccc1-c1nccn1-c1cc(OC)c(OC)c(OC)c1', 'melting point', '130 to 132 °C'),
  ('CCOc1cccc(-c2nccn2-c2cc(OC)c(OC)c(OC)c2)c1', 'melting point', '121 to 122 °C'),
  ('CCSc1ccc(-c2nccn2-c2cc(OC)c(OC)c(OC)c2)cc1', 'melting point', '143 to 145 °C'),
  ('CCOc1ccc(-c2nccn2-c2cc(OC)c(OC)c(OC)c2)cc1', 'melting point', '132 to 134 °C'),
  ('COc1cc(-n2ccnc2-c2cc(C)c(OC)c(C)c2)cc(OC)c1OC', 'melting point', '153 to 155 °C');
